# TESTED SYSTEM: Caspase-7 (Homo sapiens) (UniProt P55210)
# Sequence (P55210 whole entry, looked up): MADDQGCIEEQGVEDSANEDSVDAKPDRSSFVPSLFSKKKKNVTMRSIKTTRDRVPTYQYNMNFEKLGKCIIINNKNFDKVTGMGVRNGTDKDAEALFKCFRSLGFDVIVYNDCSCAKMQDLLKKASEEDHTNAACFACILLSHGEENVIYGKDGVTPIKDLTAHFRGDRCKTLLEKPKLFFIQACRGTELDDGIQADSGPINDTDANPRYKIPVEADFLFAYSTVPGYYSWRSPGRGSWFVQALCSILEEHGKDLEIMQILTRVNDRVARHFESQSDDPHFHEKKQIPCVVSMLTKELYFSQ
# PROCEDURE DETAILS: caspase-7 enzyme inhibition, selectivity check – biochemical, DEVD-R110 fluorescence, cherry-pick, selectivity assay for caspase-6 inhibitor project, dose response (AID 743295)
# RUN PARAMETERS: purified caspase-7, DEVD-R110 cleavage fluorescence; series mostly up to 35 µM
Potency and affinity values are given separately. Activity calls are given as the source filed them.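 How the source made its calls: active means compounds lowering caspase 7 signal with dose, half-maximal concentration at most twice the top valid dose; inconclusive means flat fit with 30 to 70% inhibition, or poor fit; inactive means the rest.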
PARAMETER MEASURED: outcome

Before answering, review these 5 worked examples.
1. Cc1cc(C=O)c(C)n1-c1cc(C(=O)O)cc(C(=O)O)c1 = inactive
2. COc1cc(NC(=O)COC(=O)c2ccc([N+](=O)[O-])s2)cc(OC)c1OC = inactive
3. O=C(O)Cc1ccc(-n2cccc2)cc1 = inactive
4. O=C(COC(=O)c1ccc([N+](=O)[O-])s1)Nc1ccc(F)cc1 = inactive
5. O=C(Nc1ccc2nc3n(c(=O)c2c1)CCCCC3)c1c(F)ccc([N+](=O)[O-])c1F = inactive

Read the next record carefully.
response.value for `Nc1cc(S(=O)(=O)O)cc([N+](=O)[O-])c1O` (field: outcome) = inactive
